Values were extracted from paper PMC10480161.

# Test system: P. falciparum NF54
# protocol: P. falciparum blood stage assay (SYBR Green)
# Assay type: cell-based, Plasmodium falciparum
# condition info: 2.5 uM, 72 h; untreated = 129
Listed below: P. falciparum blood-stage development (parasite DNA level fluorescence) values for each entry.
// no unit string in output, number only

The measured P. falciparum blood-stage development (parasite DNA level fluorescence) associated with Fc1ccc(-c2ccnc(N3CCNCC3)c2)c(OCCc2cccnc2)c1 [Compound 12l] reads 110.4

Continuing:
Value of P. falciparum blood-stage development (parasite DNA level fluorescence) reported for the molecule Cc1nn(C)c(C)c1CCOc1cc(F)ccc1-c1cccc(OCCN(C)C)c1 [Compound 26c] is 117.8
